Values compiled from paper PMC9696710.

# ASSAY TARGET: hCA II (Homo sapiens, UniProt P00918)
# Construct: gene CA2; recombinant, obtained in-house; cytosolic alpha-CA
# METHOD: stopped-flow CO2 hydrase assay
# Format: biochemical
# ASSAY CONTEXT: read-out: KI (nM) ^a / hCA II (α-CA)
We label by threshold. Values of Ki strictly beneath 20 nM are yes. Values of 20 nM and up are no.

Data request: Does the reported Ki of Cc1cccc(CN2C(=O)CN(c3ccc(S(N)(=O)=O)cc3)C2=O)c1 stay below 20 nM?
Data returned: no

Data request: Find out if reported Ki for Cc1ccc(CN2C(=O)CN(c3ccc(S(N)(=O)=O)cc3)C2=O)cc1 is less than 20 nM
Data returned: no

Data request: API: query returns whether the compound falls strictly under 20 nM in Ki. Query: NS(=O)(=O)c1ccc(N2CC(=O)N(Cc3ccc([N+](=O)[O-])cc3)C2=O)cc1
Data returned: yes

Data request: hey, is Ki for NS(=O)(=O)c1ccc(N2CC(=O)N(Cc3ccccc3)C2=O)cc1 lower than 20 nM or not?
Data returned: yes

Data request: Would you kindly verify if Ki of N#Cc1ccc(CN2C(=O)CN(c3ccc(S(N)(=O)=O)cc3)C2=O)cc1 is strictly less than 20 nM?
Data returned: yes

Data request: Dear colleague, could you confirm whether Ki of NS(=O)(=O)c1ccc(N2CC(=O)N(Cc3ccc(Cl)cc3)C2=O)cc1 falls below 20 nM? Thanks.
Data returned: no

Data request: Does NS(=O)(=O)c1ccc(N2CC(=O)N(Cc3ccc(OC(F)(F)F)cc3)C2=O)cc1 have Ki strictly under 20 nM?
Data returned: yes

Data request: Is Ki strictly under 20 nM for the entry NS(=O)(=O)c1ccc(N2CC(=O)NC2=O)cc1 ?
Data returned: yes

Data request: Is Ki of NS(=O)(=O)c1ccc(N2CC(=O)N(Cc3ccccc3F)C2=O)cc1 strictly below 20 nM?
Data returned: yes

Data request: Does C=CCN1C(=O)CN(c2ccc(S(N)(=O)=O)cc2)C1=O have Ki strictly under 20 nM?
Data returned: no

Data request: For this compound, is Ki lower than 20 nM? NS(=O)(=O)c1ccc(N2CC(=O)N(Cc3c(F)c(F)c(F)c(F)c3F)C2=O)cc1
Data returned: no

====

# Ki listing for each entry below
# ASSAY TARGET: MgCA (Malassezia globosa, UniProt A8Q1N3)
# Construct: gene MGL_1814; recombinant, obtained in-house; beta-CA
# Sequence (A8Q1N3 1-241): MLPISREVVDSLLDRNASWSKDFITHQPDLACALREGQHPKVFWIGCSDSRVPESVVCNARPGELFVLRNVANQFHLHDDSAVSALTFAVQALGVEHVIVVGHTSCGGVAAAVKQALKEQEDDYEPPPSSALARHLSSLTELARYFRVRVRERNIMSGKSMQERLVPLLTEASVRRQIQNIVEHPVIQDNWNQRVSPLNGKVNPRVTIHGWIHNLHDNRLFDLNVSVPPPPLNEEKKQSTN
# METHOD: stopped-flow CO2 hydrase assay
# Assay type: biochemical
# ASSAY CONTEXT: […] TRIS pH […] Na2SO4, […] h preincubation at room temperature; read-out: KI (nM) ^a / MgCA (β-CA)
Numeric answer only, unit nM assumed.

COMPOUND STRUCTURE | UNIT ABBREVIATION | Ki
NS(=O)(=O)c1ccc(N2CC(=O)N(Cc3c(F)c(F)c(F)c(F)c3F)C2=O)cc1 | nM | 34900

Data request: Query (compound): CCCCCCCN1C(=O)CN(c2ccc(S(N)(=O)=O)cc2)C1=O ; field requested: Ki
Data returned: 95700

Data request: # Ki lookup, item CCN1C(=O)CN(c2ccc(S(N)(=O)=O)cc2)C1=O
Data returned: 68100

Data request: # query: Ki of entry C=CCN1C(=O)CN(c2ccc(S(N)(=O)=O)cc2)C1=O
Data returned: 66600

Data request: For the compound NS(=O)(=O)c1ccc(N2CC(=O)NC2=O)cc1 , what Ki is on record?
Data returned: 37200

====

# ASSAY TARGET: hCA II (Homo sapiens, UniProt P00918)
# Construct: gene CA2; recombinant, obtained in-house; cytosolic alpha-CA
# METHOD: stopped-flow CO2 hydrase assay
# Type: biochemical
# ASSAY CONTEXT: read-out: KI (nM) ^a / hCA II (α-CA)
MEASUREMENT LABEL: Ki (nM)
Give the value, in units of nM, as a plain number.

COMPOUND STRUCTURE | Ki, nM
NS(=O)(=O)c1ccc(N2CC(=O)N(Cc3ccc(C(F)(F)F)cc3)C2=O)cc1 | 43.3

Data request: Item under review: CCCCCCCN1C(=O)CN(c2ccc(S(N)(=O)=O)cc2)C1=O . Reported Ki?
Data returned: 56.4

Data request: Query (compound): CCN1C(=O)CN(c2ccc(S(N)(=O)=O)cc2)C1=O ; field requested: Ki
Data returned: 25.8

====

# ASSAY TARGET: MgCA (Malassezia globosa, UniProt A8Q1N3)
# Construct: gene MGL_1814; recombinant, obtained in-house; beta-CA
# METHOD: stopped-flow CO2 hydrase assay
# Format: biochemical
# ASSAY CONTEXT: […] TRIS pH […] Na2SO4, […] h preincubation at room temperature; read-out: KI (nM) ^a / MgCA (β-CA)
Reported Ki values are given for each entry in this list.
Provide the reading as a plain figure in nM.

Recorded Ki, per entry:
COMPOUND STRUCTURE | MEASUREMENT LABEL | ENDPOINT VALUE
NS(=O)(=O)c1ccc(N2CC(=O)N(Cc3ccc(Cl)cc3)C2=O)cc1 | Ki | 41500
NS(=O)(=O)c1ccc(N2CC(=O)N(Cc3ccccc3F)C2=O)cc1 | Ki | 81100

Data request: Which Ki value is on record for NS(=O)(=O)c1ccc(N2CC(=O)N(Cc3ccc(C(F)(F)F)cc3)C2=O)cc1 ?
Data returned: 59600
